Assay: BSK_SAg_Proliferation: Cell Proliferation Assessment in the BioMAP Diversity Plus: SAg Assay (AID 2283095);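 note: relative cell number as total protein by SRB absorbance in sub-confluent culture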
Settings: primary human HUVEC with PBMC
Calls of active or inactive are those of the source. Rule for the calls: active = hit-call score of the fitted dose curve at least 0.9, where 1 is the maximum; inactive = score below 0.9.
recorded-metric: AC50

Example results:
CCOc1nc(F)cc2nc(S(=O)(=O)Nc3c(Cl)cccc3C(=O)OC)nn12; inactive
CC(C)(c1cc(Br)c(OCCO)c(Br)c1)c1cc(Br)c(OCCO)c(Br)c1; 0.479 µM (active)
C=CCOCC(O)CCl (stereo unspecified); inactive
c1ccc2c(c1)ccc1cc3c(ccc4ccccc43)cc12; inactive
CO[Si](OC)(OC)c1ccccc1; inactive

Value of measured AC50 for the entry CC1OC1C1CCC2(C)OC2C1 (stereo unspecified) : inactive

Just so you know, measured AC50 for C/C=C\C/C=C/CCCCCCCCOC(C)=O came out at 26.7 µM (active)
